meta.source: patent US20230212244A1

STUDY_SYSTEM: T1, HLA-A*02:01 (human)
T1 construct: MHC class I monomer made peptide-receptive by UV cleavage of a UV-sensitive ligand; also called peptide-receptive MHC molecules
METHOD_SUMMARY: UV-ligand exchange ELISA (anti-β2m), peptide exchange yield grade
ENDPOINT_NAME: peptide exchange yield

[
  {
    "BINDER": "ILDDSFKLL [peptide ILDDSFKLL (SEQ ID NO: 41)]",
    "ENDPOINT_NAME": "peptide exchange yield",
    "ENDPOINT_VALUE": "20 to 50%"
  },
  {
    "BINDER": "ALTEIQEFI [peptide ALTEIQEFI (SEQ ID NO: 28)]",
    "ENDPOINT_NAME": "peptide exchange yield",
    "ENDPOINT_VALUE": "≥ 75%"
  },
  {
    "BINDER": "FLFGYPKRL [peptide FLFGYPKRL (SEQ ID NO: 103)]",
    "ENDPOINT_NAME": "peptide exchange yield",
    "ENDPOINT_VALUE": "20 to 50%"
  },
  {
    "BINDER": "RLLHEVQEL [peptide RLLHEVQEL (SEQ ID NO: 163)]",
    "ENDPOINT_NAME": "peptide exchange yield",
    "ENDPOINT_VALUE": "50 to 75%"
  },
  {
    "BINDER": "SLQELRLLL [peptide SLQELRLLL (SEQ ID NO: 93)]",
    "ENDPOINT_NAME": "peptide exchange yield",
    "ENDPOINT_VALUE": "≥ 75%"
  },
  {
    "BINDER": "ALWWGVVTV (also called ALWWGWTV) [peptide ALWWGVVTV (SEQ ID NO: 97)]",
    "ENDPOINT_NAME": "peptide exchange yield",
    "ENDPOINT_VALUE": "20 to 50%"
  },
  {
    "BINDER": "RLYTKLLNEA [peptide RLYTKLLNEA (SEQ ID NO: 19)]",
    "ENDPOINT_NAME": "peptide exchange yield",
    "ENDPOINT_VALUE": "50 to 75%"
  },
  {
    "BINDER": "TLMAEMHVV [peptide TLMAEMHW (SEQ ID NO: 50)]",
    "ENDPOINT_NAME": "peptide exchange yield",
    "ENDPOINT_VALUE": "50 to 75%"
  },
  {
    "BINDER": "QMLDVAIRV [peptide QMLDVAIRV (SEQ ID NO: 29)]",
    "ENDPOINT_NAME": "peptide exchange yield",
    "ENDPOINT_VALUE": "50 to 75%"
  }
]
